- study-system: Delta-type opioid receptor (Mus musculus)
- Sequence (P32300 whole entry): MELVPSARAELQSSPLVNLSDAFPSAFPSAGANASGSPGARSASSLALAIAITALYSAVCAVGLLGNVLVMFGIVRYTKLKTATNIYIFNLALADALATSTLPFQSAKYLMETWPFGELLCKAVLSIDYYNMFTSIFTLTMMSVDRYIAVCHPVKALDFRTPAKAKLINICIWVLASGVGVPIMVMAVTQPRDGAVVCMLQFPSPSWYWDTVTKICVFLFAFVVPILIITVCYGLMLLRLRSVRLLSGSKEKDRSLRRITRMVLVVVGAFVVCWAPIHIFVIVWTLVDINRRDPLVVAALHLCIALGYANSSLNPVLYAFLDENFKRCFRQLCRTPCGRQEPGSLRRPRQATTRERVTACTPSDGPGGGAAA
- protocol-text: Displacement of deltorphin-II from delta opioid receptor in mouse vas deferens
- Type: functional
- assay-context: read-out: pA2 (converted)
Square brackets hold non-standard residues; d marks the D form. Peptide text beside a SMILES is read from it. Dmt = Cc1cc(O)cc(C)c1C[C@H](N)C(=O)O; Tic = O=C(O)[C@@H]1Cc2ccccc2CN1

compound	study-system	Kb [pM]
Cc1cc(O)cc(C)c1C[C@H](N)C(=O)N1Cc2ccccc2CC1C(=O)NCCCCCCNC(=O)C1Cc2ccccc2CN1 (some centres undefined)	Delta-type opioid receptor (Mus musculus)	39.8
Cc1cc(O)cc(C)c1C[C@H](N)C(=O)N1Cc2ccccc2CC1C(=O)NCCCCCCNC(=O)[C@@H](N)Cc1ccccc1 (some centres undefined)	Delta-type opioid receptor (Mus musculus)	50.1
Cc1cc(O)cc(C)c1C[C@H](N)C(=O)NCCCCCCNC(=O)C1Cc2ccccc2CN1C(=O)[C@@H](N)Cc1c(C)cc(O)cc1C (some centres undefined)	Delta-type opioid receptor (Mus musculus)	63.1
Cc1cc(O)cc(C)c1C[C@H](N)C(=O)N1Cc2ccccc2C[C@H]1C(=O)O (H-[Dmt]-[Tic]-OH)	Delta-type opioid receptor (Mus musculus)	3160

---

- study-system: Delta-type opioid receptor (Rattus norvegicus, UniProt P33533)
- Sequence (P33533 whole entry): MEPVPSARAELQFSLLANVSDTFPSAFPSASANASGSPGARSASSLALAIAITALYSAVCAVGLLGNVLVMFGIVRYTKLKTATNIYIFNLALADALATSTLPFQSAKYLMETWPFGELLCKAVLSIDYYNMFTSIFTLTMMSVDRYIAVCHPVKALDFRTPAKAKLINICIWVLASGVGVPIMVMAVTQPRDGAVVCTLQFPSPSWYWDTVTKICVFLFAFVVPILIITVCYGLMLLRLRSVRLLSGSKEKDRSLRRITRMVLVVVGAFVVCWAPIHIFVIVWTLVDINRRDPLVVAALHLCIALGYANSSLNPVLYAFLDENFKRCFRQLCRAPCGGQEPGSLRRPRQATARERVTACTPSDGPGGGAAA
- protocol-text: Displacement of [3H]deltorphin II from delta opioid receptor in rat brain membrane
Entries and their Ki values follow.
test-readout: Ki (nM)

compound	test-readout	recorded-number
Cc1cc(O)cc(C)c1C[C@H](N)C(=O)N1Cc2ccccc2CC1C(=O)NCCCCCCNC(=O)[C@@H](N)Cc1ccccc1 (stereo partly drawn)	Ki	0.89
Cc1cc(O)cc(C)c1C[C@H](N)C(=O)N1Cc2ccccc2CC1C(=O)NCCCCCCNC(=O)C1Cc2ccccc2CN1 (stereo partly drawn)	Ki	0.13
Cc1cc(O)cc(C)c1C[C@H](N)C(=O)NCCCCCCNC(=O)C1Cc2ccccc2CN1C(=O)[C@@H](N)Cc1c(C)cc(O)cc1C (stereo partly drawn)	Ki	0.23

---

- study-system: Mu-type opioid receptor (Rattus norvegicus, UniProt P33535)
- Sequence (P33535 whole entry): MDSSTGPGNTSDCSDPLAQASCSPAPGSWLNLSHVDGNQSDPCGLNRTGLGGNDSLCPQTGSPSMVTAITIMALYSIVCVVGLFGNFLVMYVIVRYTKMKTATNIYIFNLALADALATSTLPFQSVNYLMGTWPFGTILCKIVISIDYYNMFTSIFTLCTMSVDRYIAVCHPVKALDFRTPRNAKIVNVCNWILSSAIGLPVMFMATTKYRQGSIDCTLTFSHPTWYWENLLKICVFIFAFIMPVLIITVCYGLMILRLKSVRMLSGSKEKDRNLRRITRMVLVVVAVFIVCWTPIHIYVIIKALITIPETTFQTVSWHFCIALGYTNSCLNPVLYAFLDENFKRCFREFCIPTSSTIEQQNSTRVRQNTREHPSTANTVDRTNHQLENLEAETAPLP

molecule	unit-tag	Ki
Cc1cc(O)cc(C)c1C[C@H](N)C(=O)NCCCCCCNC(=O)C1Cc2ccccc2CN1C(=O)[C@@H](N)Cc1c(C)cc(O)cc1C (stereo partly drawn)	nM	0.38
Cc1cc(O)cc(C)c1C[C@H](N)C(=O)N1Cc2ccccc2CC1C(=O)NCCCCCCNC(=O)[C@@H](N)Cc1ccccc1 (stereo partly drawn)	nM	1.91
Cc1cc(O)cc(C)c1C[C@H](N)C(=O)N1Cc2ccccc2CC1C(=O)NCCCCCCNC(=O)C1Cc2ccccc2CN1 (stereo partly drawn)	nM	2.81

Ref: ChEMBL document CHEMBL1141239
